Measured logD of individual entries
assay: Lipophilicity, log D of the compound; format: physicochemical; conditions: octanol/water
Number only, no unit.

Worked cases, logD given:
inputSmiles: CCOC[C@H](Oc1ncnc2c1cnn2-c1ncccc1Cl)C(=O)Nc1cnc(C)cn1
logD: 1.8
//
inputSmiles: COC[C@H](Oc1ncnc2c1cnn2-c1ncccc1Cl)C(=O)Nc1ccc(C)cn1
logD: 2.3
//
inputSmiles: CCOC[C@H](Oc1ncnc2c1cnn2-c1ncccc1Cl)C(=O)Nc1ccc(C)cn1
logD: 2.6
//
inputSmiles: Cc1cnc(NC(=O)[C@H](COC2CCC2)Oc2ncnc3c2cnn3-c2ccccc2Cl)cn1
logD: 3.6
//
inputSmiles: CC(C)OC[C@H](Oc1ncnc2c1cnn2-c1ccccc1Cl)C(=O)Nc1ccc(C#N)cn1
logD: 3.5

I would be grateful if you could share the reported logD for COCC[C@H](Oc1ncnc2c1cnn2-c1ncccc1Cl)C(=O)Nc1ccc(C)cn1 .
2.3

I would be grateful if you could share the reported logD for CCOC[C@H](Oc1ncnc2c1cnn2-c1ncccc1Cl)C(=O)Nc1ccc(F)cn1 .
2.4

I would be grateful if you could share the reported logD for COCC[C@H](Oc1ncnc2c1cnn2-c1ccccc1Cl)C(=O)Nc1ccc(C)cn1 .
3.6

I would be grateful if you could share the reported logD for CCOC[C@H](Oc1ncnc2c1cnn2-c1ncccc1Cl)C(=O)Nc1ccc(Cl)cn1 .
3

I would be grateful if you could share the reported logD for COC[C@H](Oc1ncnc2c1cnn2-c1ncccc1Cl)C(=O)Nc1cnc(C)cn1 .
1.4

I would be grateful if you could share the reported logD for CCOC[C@H](Oc1ncnc2c1cnn2-c1ncccc1Cl)C(=O)Nc1ccccn1 .
2.1

====

organism: Rattus norvegicus; assay: Unbound clearance in rat; format: ADME, organism-based; conditions: in vivo
Measured CL free of individual entries
Provide only the numeric value, understood in mL/min/kg.

inputSmiles: COCC[C@H](Oc1ncnc2c1cnn2-c1ncccc1Cl)C(=O)Nc1ccc(C)cn1
CL free (mL/min/kg): 280
//
inputSmiles: Cc1cnc(NC(=O)[C@H](COC2CCC2)Oc2ncnc3c2cnn3-c2ccccc2Cl)cn1
CL free (mL/min/kg): 650
//
inputSmiles: CCOC[C@H](Oc1ncnc2c1cnn2-c1ncccc1Cl)C(=O)Nc1cnc(C)cn1
CL free (mL/min/kg): 320

I would be grateful if you could share the reported CL free for Cc1ccc(NC(=O)[C@H](COC(C)C)Oc2ncnc3c2cnn3-c2ccccc2Cl)nc1 .
1400

I would be grateful if you could share the reported CL free for Cc1cnc(NC(=O)[C@H](COC2CCC2)Oc2ncnc3c2cnn3-c2ncccc2Cl)cn1 .
260

I would be grateful if you could share the reported CL free for CCOC[C@H](Oc1ncnc2c1cnn2-c1ncccc1Cl)C(=O)Nc1ccc(C)cn1 .
340

====

Reported IC50, UniProtKB Q12809.
Sequence (Q12809 whole entry): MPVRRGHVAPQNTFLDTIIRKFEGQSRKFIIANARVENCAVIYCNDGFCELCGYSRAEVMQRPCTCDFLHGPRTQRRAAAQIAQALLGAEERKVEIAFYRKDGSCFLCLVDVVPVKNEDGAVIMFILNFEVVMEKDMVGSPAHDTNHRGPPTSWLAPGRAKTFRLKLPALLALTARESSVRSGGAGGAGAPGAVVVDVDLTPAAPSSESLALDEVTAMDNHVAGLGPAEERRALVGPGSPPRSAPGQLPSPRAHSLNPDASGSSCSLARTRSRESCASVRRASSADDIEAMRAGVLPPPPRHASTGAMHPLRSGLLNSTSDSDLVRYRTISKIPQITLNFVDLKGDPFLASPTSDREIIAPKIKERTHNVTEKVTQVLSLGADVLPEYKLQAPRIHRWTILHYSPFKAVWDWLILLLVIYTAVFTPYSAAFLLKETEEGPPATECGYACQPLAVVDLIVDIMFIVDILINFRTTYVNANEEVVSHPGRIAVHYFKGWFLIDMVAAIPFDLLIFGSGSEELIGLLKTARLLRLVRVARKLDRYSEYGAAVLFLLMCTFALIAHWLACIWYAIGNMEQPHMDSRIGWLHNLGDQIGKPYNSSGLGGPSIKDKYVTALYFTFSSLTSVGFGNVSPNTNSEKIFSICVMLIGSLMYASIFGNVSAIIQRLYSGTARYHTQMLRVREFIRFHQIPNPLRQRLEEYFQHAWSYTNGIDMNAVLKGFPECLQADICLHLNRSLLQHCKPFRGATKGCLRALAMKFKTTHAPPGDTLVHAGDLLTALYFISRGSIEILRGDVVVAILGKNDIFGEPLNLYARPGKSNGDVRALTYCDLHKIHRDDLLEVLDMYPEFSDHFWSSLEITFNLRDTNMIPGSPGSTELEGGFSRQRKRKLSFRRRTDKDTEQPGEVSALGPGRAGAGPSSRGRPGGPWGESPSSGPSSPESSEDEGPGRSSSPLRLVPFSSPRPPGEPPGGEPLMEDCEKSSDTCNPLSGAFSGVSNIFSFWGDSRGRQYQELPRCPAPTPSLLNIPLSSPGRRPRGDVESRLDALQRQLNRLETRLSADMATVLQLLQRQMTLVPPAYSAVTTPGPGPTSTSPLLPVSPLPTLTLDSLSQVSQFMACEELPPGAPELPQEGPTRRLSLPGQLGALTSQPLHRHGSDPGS

inputSmiles: COCC[C@H](Oc1ncnc2c1cnn2-c1ccccc1Cl)C(=O)Nc1ccc(C)cn1
IC50: 20 µM

I would be grateful if you could share the reported IC50 for CC(C)OC[C@H](Oc1ncnc2c1cnn2-c1ncccc1Cl)C(=O)Nc1ccccn1 .
> 100 µM

I would be grateful if you could share the reported IC50 for CC(C)OC[C@H](Oc1ncnc2c1cnn2-c1ncccc1Cl)C(=O)Nc1ccc(C#N)cn1 .
50.1 µM

I would be grateful if you could share the reported IC50 for Cc1ccc(NC(=O)[C@H](COC2CCC2)Oc2ncnc3c2cnn3-c2ncccc2Cl)nc1 .
39.8 µM

I would be grateful if you could share the reported IC50 for Cc1cnc(NC(=O)[C@H](COC2CCC2)Oc2ncnc3c2cnn3-c2ccccc2Cl)cn1 .
12.6 µM

Ref: ChEMBL document CHEMBL3217683
